Experiment summary: qHTS for differential inhibitors of proliferation of Plasmodium falciparum line 3D7 (AID 1876)
Run conditions: P. falciparum 3D7 proliferation inhibition; series mostly up to 28.7 µM
Records with an inconclusive call do not appear. Active and inactive are the calls of the source. Calls come from the whole dose curve; as a rule, active = well fitted curve in the direction sought with a large enough effect; inconclusive = small, poorly fitted or top-dose-only effect, or another doubt; inactive = no such curve, though single readings can be large or run the other way.
Please reply with one of these outcomes: 1 (active), 0 (inactive)

Worked set:
NC(=NCc1ccccc1)NC(=O)c1nc(Cl)c(N)nc1N = 1
CC(=O)O[C@H]1C(=O)[C@@]2(C)C([C@H](OC(=O)c3ccccc3)[C@]3(O)C[C@H](OC(=O)[C@H](O)[C@@H](NC(=O)c4ccccc4)c4ccccc4)C(C)=C1C3(C)C)[C@]1(OC(C)=O)CO[C@@H]1C[C@@H]2O (stereo partly specified) = 1
CCN(CC)C(=S)SSC(=S)N(CC)CC = 1
CC(C)c1ccc2c(c1)c(SC(C)(C)C)c(CC(C)(C)C(=O)O)n2Cc1ccc(Cl)cc1 = 1
Oc1ccc(-c2nc(-c3ccc(F)cc3)c(-c3ccncc3)[nH]2)cc1 = 1
CN(C)CCCC1(c2ccc(F)cc2)OCc2cc(C#N)ccc21 (stereo unspecified) = 1
C[C@@H](N)C1CCC(C(=O)Nc2ccncc2)CC1 (stereo partly specified) = 0
O=c1c(O)c(-c2ccc(O)cc2O)oc2cc(O)cc(O)c12 = 0

Input line: Kindly provide the recorded test outcome for the following molecule: `CC1(C)NC(=O)N(c2ccc([N+](=O)[O-])c(C(F)(F)F)c2)C1=O`
Output line: 0

Input line: Kindly provide the recorded test outcome for the following molecule: `Nc1nc(OCc2ccccc2)c2[nH]cnc2n1`
Output line: 0

Input line: Kindly provide the recorded test outcome for the following molecule: `NCCCCNCCCN`
Output line: 0

---

Experiment summary: Quantitative High-Throughput drug screen in 47 multiple myeloma cell lines against the NCATS MIPE library collection: KMS20_JCRB cell viability assay (AID 1918973); note: nearly all actives have a fitted effect of over 45% in size
Run conditions: CellTiter-Glo ATP, 48 h; series mostly up to 45.8 µM
Records with an inconclusive call do not appear. Activity calls are given as the source filed them. Calls follow the shape of the dose curve; as a rule, active = well fitted cell-killing curve with a large enough effect; inconclusive = small, poorly fitted or top-dose-only effect, or effect the other way; inactive = no such curve, though single readings can be large or run the other way.
Please reply with one of these outcomes: t for active, f for inactive

Worked set:
O=C(NOCC1CC1)c1ccc(F)c(F)c1Nc1ccc(I)cc1Cl = t
Nc1nc(N)c(N=O)c(OCC2CCCCC2)n1 = t
CC(=O)O[C@H]1C(=O)[C@@]2(C)C([C@H](OC(=O)c3ccccc3)[C@]3(O)C[C@H](OC(=O)[C@H](O)[C@@H](NC(=O)c4ccccc4)c4ccccc4)C(C)=C1C3(C)C)[C@]1(OC(C)=O)CO[C@@H]1C[C@@H]2O (stereo partly specified) = f
CCC1=C(C)CN(C(=O)NCCc2ccc(S(=O)(=O)NC(=O)NC3CCC(C)CC3)cc2)C1=O (stereo unspecified) = f
CC[C@]1(O)C[C@H]2CN(CCc3c([nH]c4ccccc34)[C@@](C(=O)OC)(c3cc4c(cc3OC)N(C=O)[C@H]3[C@@](O)(C(=O)OC)[C@H](OC(C)=O)[C@]5(CC)C=CCN6CC[C@]43[C@@H]65)C2)C1 = t
C[C@@H](N)C1CCC(C(=O)Nc2ccncc2)CC1 (stereo partly specified) = f

Input line: Kindly provide the recorded test outcome for the following molecule: `CCOc1cc(CC(=O)N[C@@H](CC(C)C)c2ccccc2N2CCCCC2)ccc1C(=O)O`
Output line: t

Input line: Kindly provide the recorded test outcome for the following molecule: `Cc1cc2c(s1)Nc1ccccc1N=C2N1CCN(C)CC1`
Output line: f

Input line: Kindly provide the recorded test outcome for the following molecule: CCCCC(CC)COC(=O)C(C#N)=C(c1ccccc1)c1ccccc1 (stereo unspecified)
Output line: f

Input line: Kindly provide the recorded test outcome for the following molecule: COC(=O)C1=C(C)NC(C)=C(C(=O)OCCCN2CCC(c3ccccc3)(c3ccccc3)CC2)C1c1cccc([N+](=O)[O-])c1 (stereo unspecified)
Output line: f

Input line: Kindly provide the recorded test outcome for the following molecule: `Cc1ccc(C(=O)c2cc(O)c(O)c([N+](=O)[O-])c2)cc1`
Output line: t

Input line: Kindly provide the recorded test outcome for the following molecule: `COc1cc2c(N3CCN(C(=O)Nc4ccc(OC(C)C)cc4)CC3)ncnc2cc1OCCCN1CCCCC1`
Output line: t

Input line: Kindly provide the recorded test outcome for the following molecule: `CC(=O)N1CCN(c2ccc(OC[C@H]3CO[C@](Cn4ccnc4)(c4ccc(Cl)cc4Cl)O3)cc2)CC1`
Output line: t

Input line: Kindly provide the recorded test outcome for the following molecule: O=C(NCC1CCCCN1)c1cc(OCC(F)(F)F)ccc1OCC(F)(F)F (stereo unspecified)
Output line: t

Input line: Kindly provide the recorded test outcome for the following molecule: CC1=C(C)C(=O)C(C(CCCCCC(=O)O)c2ccccc2)=C(C)C1=O (stereo unspecified)
Output line: f

Input line: Kindly provide the recorded test outcome for the following molecule: `CN(c1nccc(=O)[nH]1)C1CCN(c2nc3ccccc3n2Cc2ccc(F)cc2)CC1`
Output line: t

---

Experiment summary: High-throughput drug toxicity screening in the BPDCN cell line Cal-1 (AID 1224825);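 note: cells exposed to compounds for 48 h; 100% = DMSO and 0% = bortezomib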
Run conditions: Cal-1 BPDCN cell viability, qHTS; at 45.8 µM (top of the series) unless noted
Observable: viability (% of control) (%)
Kindly answer with a numeric value in %, unit omitted.

Below, 2 compounds whose answers are already recorded.
CC(S)C(=O)NCC(=O)O (stereo not drawn) = 100
CCN(CC)CCOc1ccc(Nc2ncc3cc(-c4c(Cl)cccc4Cl)c(=O)n(C)c3n2)cc1 = 2.59

Input line: Please report the recorded viability (% of control) for O=C(c1ccccc1)c1ccc2n1CCC2C(=O)O (stereo not drawn) .
Output line: 15.1

Input line: Please report the recorded viability (% of control) for `CC1=C(C(=O)O)N2C(=O)[C@@H](NC(=O)[C@H](N)C3=CCC=CC3)[C@H]2SC1` .
Output line: 99.4

Input line: Please report the recorded viability (% of control) for Cc1c(OCC(F)(F)F)ccnc1CS(=O)c1nc2ccccc2[nH]1 (stereo not drawn) .
Output line: 100

Input line: Please report the recorded viability (% of control) for `C[C@H](Cc1ccc(O)c(O)c1)[C@@H](C)Cc1ccc(O)c(O)c1` .
Output line: 5.77

Input line: Please report the recorded viability (% of control) for `NS(=O)(=O)c1cc(C(=O)O)c(NCc2ccco2)cc1Cl` .
Output line: 108

Input line: Please report the recorded viability (% of control) for `CN(C)C(=O)COC(=O)Cc1ccc(OC(=O)c2ccc(N=C(N)N)cc2)cc1` .
Output line: 104

Input line: Please report the recorded viability (% of control) for `CCOC(=O)c1c(C)n(C)c2ccc(O)cc12` .
Output line: 87.8

Input line: Please report the recorded viability (% of control) for `O=C(O)CCNC(=O)c1ccc(N=Nc2ccc(O)c(C(=O)O)c2)cc1` .
Output line: 130

---

Experiment summary: Drug repurposing screens with cells derived from glioblastoma tumor samples (AID 1345199); note: % is set by controls: 0 for no effect and ±100 for the full control effect; nearly all actives have a fitted effect of over 40% in size
Run conditions: GBM patient neurospheres viability, ATP luminescence, 48 h; at 46 µM (top of the series); tumour line A
Records with an inconclusive call do not appear.
Observable: activity, negative = cell killing (%)
Kindly answer with a numeric value in %, unit omitted.

Below, 5 compounds whose answers are already recorded.
CC(=O)Nc1ccc(O)cc1 = -25.4
C[Se]CCC(N)C(=O)O (configuration not stated) = -13.2
O=C(O)CCNC(=O)c1ccc(N=Nc2ccc(O)c(C(=O)O)c2)cc1 = -28
CC(S)C(=O)NCC(=O)O (configuration not stated) = -28.9
CCC(C)(Oc1ccc(C2(c3ccc(OC(C)(CC)C(=O)O)cc3)CCCCC2)cc1)C(=O)O (configuration not stated) = -6.69

Input line: Please report the recorded activity, negative = cell killing for `Nc1ncn([C@H]2C[C@H](O)[C@@H](CO)O2)c(=O)n1` .
Output line: -24.9

Input line: Please report the recorded activity, negative = cell killing for `CNC[C@H](O)c1ccc(O)c(O)c1` .
Output line: -12.1

---

Experiment summary: MultiTox-Fluor Cytotoxicity Assay - LYMP1-002 - Live Cells (AID 955);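 note: cells exposed to compound for 16 hours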
Run conditions: LYMP1-002 lymphoblastoid live-cell protease fluorescence viability; series mostly up to 46.1 µM
Excerpt: NIH Chemical Genomics Center [NCGC] NIH Molecular Libraries Screening Centers Network [MLSCN] National Institutes of Environmental Health Sciences [NIEHS] National Toxicology Program [NTP] We have developed a 1536-well cell-based assay for quantitative high throughput screening (qHTS) against a number of cell lines to determine in vitro cytotoxicity of small molecules. […] 8. Detection; live-cell fluorescence (Ex/Em=405/510); EnVision plate reader […]
Results filed as inconclusive are left out. The source made the active and inactive calls. Calls follow the shape of the dose curve; as a rule, active = well fitted cell-killing curve with a large enough effect; inconclusive = small, poorly fitted or top-dose-only effect, or effect the other way; inactive = flat fitted curve, though single readings scatter.
Please reply with one of these outcomes: 1 (active), -1 (inactive)

Worked set:
CCCc1cc(=O)[nH]c(=S)[nH]1 = -1
c1ccc2[nH]c(-c3cscn3)nc2c1 = -1
COc1c2occc2cc2ccc(=O)oc12 = -1
CS(=O)(=O)OCCCCOS(C)(=O)=O = -1

Input line: Kindly provide the recorded test outcome for the following compound: CCCCC(CC)COC(=O)C(C#N)=C(c1ccccc1)c1ccccc1 (configuration not stated)
Output line: -1

Input line: Kindly provide the recorded test outcome for the following compound: `CCc1nc(N)nc(N)c1-c1ccc(Cl)cc1`
Output line: -1

Input line: Kindly provide the recorded test outcome for the following compound: `CN(C)c1ccc2nc3ccc(=[N+](C)C)cc-3sc2c1`
Output line: 1
